# Assayed System: Protein farnesyltransferase (Homo sapiens, UniProt P49354+P49356)
# Test Details: Inhibitory activity against mammalian protein-Farnesyltransferase
# Type: protein-complex assay
Measured Metric: IC50 (µM)
# number only, unit µM dropped from output

Exercise: For the molecule C/C(=C\COP(=O)(O)OP(=O)(O)O)CCc1ccc2ccccc2c1 , give its measured IC50 value.
Key: 5.4

----------
# Assayed System: Protein farnesyltransferase (Homo sapiens, UniProt P49354+P49356)
# Test Details: Inhibitory activity against mammalian protein-Farnesyltransferase at 10 uM
# Type: protein-complex assay
pIC50: −log10 of the molar value.
Measured Metric: pIC50

Exercise: For the compound C/C(=C\COP(=O)(O)OP(=O)(O)O)CCc1ccccc1-c1ccccc1 , give its measured pIC50 value.
Key: < 5.00
